- tested target: PqsR (Pseudomonas aeruginosa, UniProt Q9I4X0)
- assay info: cell-based
- Set-up: assayed for their agonist and antagonist activities in a whole P. aeruginosa bacterial cell assay; endogenous in cells; host or cells: P. aeruginosa PAO1 wild type, ΔpqsA or ΔpqsAH strains carrying a chromosomal (mini)CTX::pqsA'-lux fusion
- recorded conditions: pqsA'-lux reporter
observed property: Antagonist activity on PqsR (in words)

query_smiles=CCCCOCCOCc1nc2ccccc2c(=O)n1N result="all inactive"
query_smiles=CC(C)CCCCCCc1nc2ccccc2c(=O)n1N result="all inactive"

----------
- tested target: PqsR (Pseudomonas aeruginosa, UniProt Q9I4X0)
- Sequence (Q9I4X0 1-332): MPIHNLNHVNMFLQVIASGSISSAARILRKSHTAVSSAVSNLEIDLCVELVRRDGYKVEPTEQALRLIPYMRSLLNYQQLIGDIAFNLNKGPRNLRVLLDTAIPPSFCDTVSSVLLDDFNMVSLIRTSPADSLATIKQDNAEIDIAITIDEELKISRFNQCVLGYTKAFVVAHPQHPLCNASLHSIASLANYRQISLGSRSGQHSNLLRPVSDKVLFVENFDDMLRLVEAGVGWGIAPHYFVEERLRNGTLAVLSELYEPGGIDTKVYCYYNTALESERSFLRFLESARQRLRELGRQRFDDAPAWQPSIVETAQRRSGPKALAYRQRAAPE
- assay info: cell-based
- Design: assayed for their agonist and antagonist activities in a whole P. aeruginosa bacterial cell assay; endogenous in cells; host or cells: P. aeruginosa PAO1 wild type, ΔpqsA or ΔpqsAH strains carrying a chromosomal (mini)CTX::pqsA'-lux fusion
- recorded conditions: Figure 6 (QZNs); P. aeruginosa wild type strain with miniCTX::pqsA'-lux fusion; read-out: Antagonist IC50±SD
pIC50: −log10 of the molar value.
Binary call on pIC50: True from 4 upward, False beneath that.

Recorded results for 4 molecules are shown here.
molecule="CCCCCCCCCCCc1nc2ccccc2c(=O)n1N [compound 21]" assigned_category=False
molecule="CCCCCCCc1nc2ccccc2c(=O)n1N [compound 19]" assigned_category=True
molecule="Nn1c(CCCc2ccccc2)nc2cc(Cl)ccc2c1=O [compound 41]" assigned_category=True
molecule="CCCCCCCCCc1nc2cc(F)c(F)cc2c(=O)n1N [compound 26]" assigned_category=True

Incoming: Assess whether reported pIC50 for CCCCCCCCCc1nc2cc(F)ccc2c(=O)n1N [compound 25] sits at 4 or higher.
Outgoing: True
